# system-tested: T1, wildtype feline IL-31 protein (Feline_IL31_wildtype) (feline)
# T1 construct: Full length feline IL-31 with C-terminal His tag, secreted from ExpiCHO cells; also called fIL-31
# T1 chain: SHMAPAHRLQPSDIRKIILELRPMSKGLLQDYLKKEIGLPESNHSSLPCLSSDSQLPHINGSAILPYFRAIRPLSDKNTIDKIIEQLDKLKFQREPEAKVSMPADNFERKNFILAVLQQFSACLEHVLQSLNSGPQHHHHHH
# experiment-summary: SPR (Biacore), IL-31 on chip, 1:1 fit
pKd: −log10 of the molar value.
parameter-measured: pKd

binder | parameter-measured | numeric-result
Feline 15H05 1.2 (antibody, V domains shown, Feline heavy and kappa constant regions) VH: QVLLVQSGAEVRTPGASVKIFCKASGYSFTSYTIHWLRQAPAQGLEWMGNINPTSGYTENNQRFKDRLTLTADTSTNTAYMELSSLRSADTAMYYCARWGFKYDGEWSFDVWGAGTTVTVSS VL: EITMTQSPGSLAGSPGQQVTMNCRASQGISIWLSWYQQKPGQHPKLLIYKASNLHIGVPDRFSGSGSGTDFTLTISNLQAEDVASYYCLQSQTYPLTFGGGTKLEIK | pKd | 6.98
Feline 15H05 1.1 V43I (antibody, V domains shown) VH: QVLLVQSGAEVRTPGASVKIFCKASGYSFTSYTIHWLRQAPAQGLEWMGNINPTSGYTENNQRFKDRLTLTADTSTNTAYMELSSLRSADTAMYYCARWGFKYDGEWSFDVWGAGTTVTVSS VL: EIQMTQSPSSLSASPGDRVTITCRASQGISIWLSWYQQKPGKIPKLLIYKASNLHIGVPSRFSGSGSGTDFTLTISSLEPEDAATYYCLQSQTYPLTFGGGTKLEIK | pKd | 7.87
